# experimental.system: EP4 (Homo sapiens)
# Sequence (P35408 whole entry): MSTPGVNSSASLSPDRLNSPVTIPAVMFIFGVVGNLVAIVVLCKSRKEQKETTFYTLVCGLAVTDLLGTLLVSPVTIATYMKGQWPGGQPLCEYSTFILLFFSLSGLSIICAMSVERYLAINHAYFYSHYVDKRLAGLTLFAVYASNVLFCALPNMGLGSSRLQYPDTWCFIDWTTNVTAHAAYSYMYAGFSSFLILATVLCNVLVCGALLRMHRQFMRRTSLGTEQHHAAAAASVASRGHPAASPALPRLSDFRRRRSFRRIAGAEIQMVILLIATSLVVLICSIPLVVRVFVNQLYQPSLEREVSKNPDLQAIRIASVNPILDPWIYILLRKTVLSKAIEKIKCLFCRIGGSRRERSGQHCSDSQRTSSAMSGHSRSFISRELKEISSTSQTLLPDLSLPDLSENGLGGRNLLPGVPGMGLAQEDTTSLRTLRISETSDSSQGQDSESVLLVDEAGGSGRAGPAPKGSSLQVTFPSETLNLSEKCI
# test.name: EP4 binding (KI)
# setup.conditions: NA = Not Active; read-out: EP4 data (EC50 in nM) KI
outcome.measure: Ki (nM)

O=C(O)COc1cccc(NC2CCc3ccc(-c4cccc(F)c4)cc32)c1 (stereo not drawn) [Example 1] = 3050
OCCOc1cccc(NC2CCCc3ccc(-c4cccc(F)c4)cc32)c1 (stereo not drawn) [Example 7] = 6280
O=C(O)COc1cccc(NC2COc3ccc(-c4cccc(F)c4)cc32)c1 (stereo not drawn) [Example 8] = 7990

I = CCN(c1cccc(OCC(=O)O)c1)C1CCc2ccc(-c3cccc(F)c3)cc21 (stereo not drawn) [Example 4]
II = O=C(O)COc1cccc(NC2CCCc3ccc(-c4cccc(F)c4)cc32)c1 (stereo not drawn) [Example 6]
In: // compare measured Ki, left I , right II , return larger Use the label to indicate which entry you chose.
Out: I

###

# experimental.system: EP2 (Homo sapiens, UniProt P43116)
# Sequence (P43116 whole entry): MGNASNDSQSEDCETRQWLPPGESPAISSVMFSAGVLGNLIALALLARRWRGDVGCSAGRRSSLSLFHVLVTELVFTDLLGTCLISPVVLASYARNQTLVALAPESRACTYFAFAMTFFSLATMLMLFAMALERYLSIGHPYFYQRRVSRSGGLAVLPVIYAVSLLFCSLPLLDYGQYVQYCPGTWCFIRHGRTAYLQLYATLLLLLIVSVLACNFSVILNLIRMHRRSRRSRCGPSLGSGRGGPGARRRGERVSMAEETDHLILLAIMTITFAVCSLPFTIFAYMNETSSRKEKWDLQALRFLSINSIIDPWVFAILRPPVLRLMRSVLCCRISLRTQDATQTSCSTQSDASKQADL
# test.name: EP2 cAMP functional assay
# Format: cell-based
# setup.conditions: NA = Not Active
outcome.measure: EC50 (nM)

Some solved entries appear below for comparison.
O=C(O)COc1cccc(NC2CCCc3ccc(-c4cccc(F)c4)cc32)c1 (stereo not drawn) [Example 6] = 438
CN(c1cccc(OCC(=O)O)c1)C1CCc2ccc(-c3cccc(F)c3)cc21 (stereo not drawn) [Example 3] = 697

A = O=C(O)COc1cccc(OC2CCc3ccc(-c4cccc(F)c4)cc32)c1 (stereo not drawn) [Example 5]
B = O=C(O)COc1cccc(NC2COc3ccc(-c4cccc(F)c4)cc32)c1 (stereo not drawn) [Example 8]
C = CCN(c1cccc(OCC(=O)O)c1)C1CCc2ccc(-c3cccc(F)c3)cc21 (stereo not drawn) [Example 4]
D = O=C(O)COc1cccc(NC2CCc3ccc(-c4cccc(F)c4)cc32)c1 (stereo not drawn) [Example 1]
In: Rank descending by EC50. Form entry: ranked labels (order as requested).
Out: C, A, D, B
(C: 8300 nM, A: 747 nM, D: 11 nM, B: 0.6 nM)

###

# experimental.system: EP2 (Homo sapiens, UniProt P43116)
# test.name: EP2 binding (Ki)
# setup.conditions: NA = Not Active; read-out: EP2 Data (EC50 in nM) Ki
outcome.measure: Ki (nM)

O=C(O)COc1cccc(NC2CCCc3ccc(-c4cccc(F)c4)cc32)c1 (stereo not drawn) [Example 6] = 104

a = O=C(O)COc1cccc(OC2CCc3ccc(-c4cccc(F)c4)cc32)c1 (stereo not drawn) [Example 5]
b = CN(c1cccc(OCC(=O)O)c1)C1CCc2ccc(-c3cccc(F)c3)cc21 (stereo not drawn) [Example 3]
c = CCN(c1cccc(OCC(=O)O)c1)C1CCc2ccc(-c3cccc(F)c3)cc21 (stereo not drawn) [Example 4]
d = O=C(O)COc1cccc(NC2CCc3ccc(-c4cccc(F)c4)cc32)c1 (stereo not drawn) [Example 1]
e = O=C(O)COc1cccc(NC2COc3ccc(-c4cccc(F)c4)cc32)c1 (stereo not drawn) [Example 8]
In: Please order the records by their reported Ki, lowest number first. Form entry: ranked labels (order as requested).
Out: e, d, a, b, c
(e: 13 nM, d: 80 nM, a: 144 nM, b: 1810 nM, c: 3940 nM)
